biological target: T1, human PCSK9 (self-cleaved, mature, secreted PCSK9 comprising amino acids 31 to 692 of SEQ ID NO: 2) (human, UniProt Q8NBP7 31-692, biotinylated in the ELISAs); test: SPR pH 7.4;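 further: antibodies captured as ligand on the sensor surface, five analyte concentrations injected with buffer blanks, double-referenced data fit to a 1:1 binding model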
T1 construct: Limits 31-692 are stated for the immunogen; the assays only say human PCSK9; also called huPCSK9; rhu PCSK9
Listed here: items and their measured koff.

Field: example entries. Status: answers known.
SS-15124 (antibody, V domains shown, 31H4 His variant: HC 66(56), 70(60), parental(113H)) VH: EVQLVESGGGLVKPGGSLRLSCAASGFTFSSYSMNWVRQAPGKGLEWVSSISSSSHYISHADSVKGRFTISRDNAKNSLYLQMNSLRAEDTAVYFCARDYDFHSAYYDAFDVWGQGTMVTVSS VL: ESVLTQPPSVSGAPGQRVTISCTGSSSNIGAGYDVHWYQQLPGTAPKLLISGNSNRPSGVPDRFSGSKSGTSASLAITGLQAEDEADYYCQSYDSSLSGSVFGGGTKLTVLG | 0.000525 s⁻¹
SS-15121 (antibody, V domains shown, 31H4 His variant: HC 61(54), 132(106), parental(113H); parental LC) VH: EVQLVESGGGLVKPGGSLRLSCAASGFTFSSYSMNWVRQAPGKGLEWVSSISSHSSYISYADSVKGRFTISRDNAKNSLYLQMNSLRAEDTAVYFCARDYDFHSAHYDAFDVWGQGTMVTVSS VL: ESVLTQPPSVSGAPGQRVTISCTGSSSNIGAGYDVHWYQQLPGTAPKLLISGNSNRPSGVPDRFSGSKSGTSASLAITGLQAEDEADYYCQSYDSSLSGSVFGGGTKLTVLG | 0.000563 s⁻¹

Lab note: next binder to report on.
Please look at this binder and report its koff: SS-15114 (antibody, V domains shown, 31H4 His variant: HC 39(32), 132(106), parental(113H)) VH: EVQLVESGGGLVKPGGSLRLSCAASGFTFSSHSMNWVRQAPGKGLEWVSSISSSSSYISYADSVKGRFTISRDNAKNSLYLQMNSLRAEDTAVYFCARDYDFHSAHYDAFDVWGQGTMVTVSS VL: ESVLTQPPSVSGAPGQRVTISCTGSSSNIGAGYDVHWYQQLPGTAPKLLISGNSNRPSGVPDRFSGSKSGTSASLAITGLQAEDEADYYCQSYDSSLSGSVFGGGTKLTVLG
0.00015 s⁻¹

The reported numbers originate from patent US20160032014A1.
